- system-name: HLA-B*07:02
- test-method-notes: IEDB peptide-MHC binding, purified MHC/competitive/radioactivity; filed as Kd, often an IC50 or EC50 that approximates it; bounds were set here for any values at or beyond the usual limits of such assays
- measurement-parameters: source organism: Vaccinia virus WR
Param label: returns 1 when Kd < 1 µM, returns 0 otherwise, including exact equality.

>  <macromolecule-sequence>
PPLISILMI

>  <qualitative-label>
0

$$$$
>  <macromolecule-sequence>
NPNCLEWLRA

>  <qualitative-label>
0

$$$$
>  <macromolecule-sequence>
EPISDYSAEV

>  <qualitative-label>
0

$$$$
>  <macromolecule-sequence>
KPVIVPDIKL

>  <qualitative-label>
1

$$$$
>  <macromolecule-sequence>
RPRVTKQYIV

>  <qualitative-label>
1

$$$$
>  <macromolecule-sequence>
AFEFINSLLK

>  <qualitative-label>
0

$$$$
>  <macromolecule-sequence>
EPEKDIRELL

>  <qualitative-label>
0

$$$$
